ASSAY_TARGET: human ether-à-go-go-related gene (hERG) potassium channel (human, UniProt Q12809);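 note: peak tail current of the secondary pulse compared with the same well before compound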
Sequence (Q12809 whole entry, looked up): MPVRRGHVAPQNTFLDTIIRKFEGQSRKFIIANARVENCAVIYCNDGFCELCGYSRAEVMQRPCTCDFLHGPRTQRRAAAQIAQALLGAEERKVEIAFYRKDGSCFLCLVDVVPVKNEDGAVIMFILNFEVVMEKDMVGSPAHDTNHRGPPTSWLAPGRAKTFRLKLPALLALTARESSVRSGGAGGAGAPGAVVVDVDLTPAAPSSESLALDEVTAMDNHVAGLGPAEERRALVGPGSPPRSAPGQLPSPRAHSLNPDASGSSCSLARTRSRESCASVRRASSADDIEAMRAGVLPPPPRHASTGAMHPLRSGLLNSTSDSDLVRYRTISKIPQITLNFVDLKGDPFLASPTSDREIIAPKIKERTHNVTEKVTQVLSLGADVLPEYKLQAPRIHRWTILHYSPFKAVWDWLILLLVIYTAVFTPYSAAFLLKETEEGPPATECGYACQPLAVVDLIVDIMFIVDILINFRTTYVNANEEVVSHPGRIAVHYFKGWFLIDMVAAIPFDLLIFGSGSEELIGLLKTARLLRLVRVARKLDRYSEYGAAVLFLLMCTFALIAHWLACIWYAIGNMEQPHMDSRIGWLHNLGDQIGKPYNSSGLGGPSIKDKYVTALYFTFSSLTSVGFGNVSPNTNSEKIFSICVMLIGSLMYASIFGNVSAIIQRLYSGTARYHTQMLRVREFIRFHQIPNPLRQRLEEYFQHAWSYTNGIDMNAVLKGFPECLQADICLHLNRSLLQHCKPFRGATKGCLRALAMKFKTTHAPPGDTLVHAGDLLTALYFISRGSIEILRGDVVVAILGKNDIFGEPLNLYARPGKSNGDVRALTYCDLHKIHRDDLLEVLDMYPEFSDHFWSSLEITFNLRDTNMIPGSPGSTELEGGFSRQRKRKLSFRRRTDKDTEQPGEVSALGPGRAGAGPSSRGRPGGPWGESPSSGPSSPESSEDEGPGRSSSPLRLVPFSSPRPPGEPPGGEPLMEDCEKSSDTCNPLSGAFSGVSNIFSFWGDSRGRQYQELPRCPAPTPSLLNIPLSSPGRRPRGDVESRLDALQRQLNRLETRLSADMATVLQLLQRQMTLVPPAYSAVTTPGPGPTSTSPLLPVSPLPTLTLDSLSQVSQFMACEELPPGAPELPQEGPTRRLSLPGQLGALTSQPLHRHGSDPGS
METHOD_NOTES: primary screen, population patch clamp on CHO cells stably expressing hERG; higher = less effect of the substance
Procedure: Briefly, Chinese hamster ovary (CHO) cells stably expressing the hERG channel were dislodged from tissue culture flasks and dispensed into PPC plates. […] During the recording, background leak currents were estimated by a 100 ms step to -80 mV from an initial holding potential of -70 mV and subtracted from the subsequent current measurement. The campaign was conducted in two phases using slight differences in recording protocol. […]
The whole screen tested about 310,000 compounds, of which about 14,000 (4.5%) showed an effect of 50% or more. Effects have a minus sign here. What follows is part of a selection rich in strong results, with near analogues and random picks from the rest.
The threshold is inclusive: hERG current change (%, negative = inhibition) at 10uM of exactly 10% counts as yes (1); values below receive no (0).

{"COMPOUND": "O=C(/C=C/c1ccco1)Nc1ccc(Oc2ccc(Cl)cc2)cc1", "ASSAY_TARGET": "human ether-à-go-go-related gene (hERG) potassium channel (human, UniProt Q12809)", "LABEL": "yes (1)"}
{"COMPOUND": "O=C(CCCCCn1c(=S)[nH]c2ccc(N3CCOCC3)cc2c1=O)NCc1ccccc1", "ASSAY_TARGET": "human ether-à-go-go-related gene (hERG) potassium channel (human, UniProt Q12809)", "LABEL": "yes (1)"}
{"COMPOUND": "Cc1c(C(=O)Nc2ccc(F)c(F)c2)oc2ccc(S(=O)(=O)N3CCCCC3)cc12", "ASSAY_TARGET": "human ether-à-go-go-related gene (hERG) potassium channel (human, UniProt Q12809)", "LABEL": "no (0)"}
{"COMPOUND": "CC(C)(C)c1[nH]nc2c1C(C1C=CCCC1)C(C#N)=C(N)O2 (stereo not shown)", "ASSAY_TARGET": "human ether-à-go-go-related gene (hERG) potassium channel (human, UniProt Q12809)", "LABEL": "no (0)"}
{"COMPOUND": "CCO[C@H]1OC(C(=O)NCc2ccccc2)=C[C@@H](C2CCCCC2)[C@@H]1CCCO", "ASSAY_TARGET": "human ether-à-go-go-related gene (hERG) potassium channel (human, UniProt Q12809)", "LABEL": "no (0)"}
{"COMPOUND": "COc1cccc(Nc2ccc(C(=O)O)cc2N)c1", "ASSAY_TARGET": "human ether-à-go-go-related gene (hERG) potassium channel (human, UniProt Q12809)", "LABEL": "yes (1)"}
{"COMPOUND": "N#Cc1c(N)n[nH]c1Cc1cccc2ccccc12", "ASSAY_TARGET": "human ether-à-go-go-related gene (hERG) potassium channel (human, UniProt Q12809)", "LABEL": "yes (1)"}
{"COMPOUND": "Nc1nc(NCCc2ccccc2)nc(NCc2ccccc2)c1[N+](=O)[O-]", "ASSAY_TARGET": "human ether-à-go-go-related gene (hERG) potassium channel (human, UniProt Q12809)", "LABEL": "yes (1)"}
{"COMPOUND": "O=C(Cc1ccsc1)NNC(=O)c1ccc(F)cc1", "ASSAY_TARGET": "human ether-à-go-go-related gene (hERG) potassium channel (human, UniProt Q12809)", "LABEL": "no (0)"}
{"COMPOUND": "Cc1ccc(NC(=O)Cn2ncc3c([nH]c4ccccc43)c2=O)cc1Cl", "ASSAY_TARGET": "human ether-à-go-go-related gene (hERG) potassium channel (human, UniProt Q12809)", "LABEL": "yes (1)"}
